test system: HCT-116 colon; experiment: NCI-60 one-dose screen, 48 h (100 = growth as untreated, 0 = no growth, -100 = all killed); conditions: 10 µM
About 83,000 compounds went through this panel and 20% of them were active in at least one assay; those are over-represented in the sample as a whole.
The reader will find reported growth values listed item by item below.
MEASURED_PARAMETER: growth (%)

molecule=CN1CCN(c2ccc(C(=O)/C=C/c3cc(C(F)(F)F)ccc3Cl)cc2)CC1 endpoint_unit=% observed=-61.7
molecule=O=C(Nc1ccc(OCC(=O)c2ccccc2)cc1)Nc1ccc(Cl)c(C(F)(F)F)c1 endpoint_unit=% observed=29.6
molecule="C=C1CCC2C3(C)COC(c4ccccc4F)OC3CCC2(C)C1C/C=C1/C(=O)OCC1O (stereo not drawn)" endpoint_unit=% observed=-67.8
molecule=Cc1noc2c(Cc3ccccc3)nn(CC(=O)N/N=C/c3ccc(F)cc3)c(=O)c12 endpoint_unit=% observed=35
molecule=CS(=O)(=O)Nc1ccc(-c2ccc3c(c2)ncn3-c2ccc(NC(=O)Nc3ccc(Cl)c(C(F)(F)F)c3)cc2)cc1 endpoint_unit=% observed=-87.7
molecule=CCN1CCN(Cc2ccc(NC(=O)c3cccc(-n4cc(-c5ccc(NC(C)=O)nc5)nn4)c3)cc2C(F)(F)F)CC1 endpoint_unit=% observed=86.3
molecule=COc1ccc(C(=O)/C=C/c2ccc(Cl)c(C(F)(F)F)c2)cc1S(N)(=O)=O endpoint_unit=% observed=-71.6
molecule=Cc1ccc(/C=C/C(=O)c2ccc(NC(=O)CSc3nnc(-c4c[nH]c5ccccc45)n3-c3ccccc3)cc2)cc1 endpoint_unit=% observed=-40.2
molecule="O=C(c1ccc(O)cc1)C1[C@H](c2ccc(Br)cc2)[C@@H](c2ccccc2)NC12C(=O)Nc1ccc(Br)cc12 (stereo partly drawn)" endpoint_unit=% observed=8.14
molecule=CCOP(=O)(OCC)O[C@H]1CC[C@]2(C)[C@H]3CC[C@@H]4[C@@H]([C@](C)(O)CCC=C(C)C)CC[C@@]4(C)[C@]3(C)CC[C@H]2C1(C)C endpoint_unit=% observed=9.92
molecule=CN1C(=O)/C(=C/c2ccc3ncsc3c2)NC1=NC12CC3CC(CC(O)(C3)C1)C2 endpoint_unit=% observed=17.3
molecule=COc1cnc2c(c1)C(=O)c1c-2n(CCCNC(C)C)c(=O)c2cc(OC)c(OC)cc12 endpoint_unit=% observed=25.5
molecule=Cc1ccc2nc(-c3ccc(-c4nnc(SCC(=O)Nc5ccc(Cl)cc5)o4)cc3)[nH]c2c1 endpoint_unit=% observed=9.37
molecule=COc1cc(/C=N/NC(=O)c2ccc3nc(-c4ccc(Cl)cc4)[nH]c3c2)cc(OC)c1OC endpoint_unit=% observed=-67.5
molecule=COc1ccsc1/C=N/NC(=O)c1[nH]c2ccc(Br)cc2c1-c1ccccc1 endpoint_unit=% observed=0.361
molecule="C/C(=C\\CSc1ccccc1C(=O)O)CCCC(C)CCCC(C)CCCC(C)C (stereo not drawn)" endpoint_unit=% observed=34.4
molecule=CN1CCO/C1=C(/NC(=O)c1ccc(Cl)cc1)[P+](c1ccccc1)(c1ccccc1)c1ccccc1 endpoint_unit=% observed=45.9
molecule=Cc1cc(C)nc(SCC(=O)Nc2ccc(S(N)(=O)=O)cc2)n1 endpoint_unit=% observed=111
